target: CDK4/Cyclin D1 (Homo sapiens, UniProt P11802); assay: CDK4/cyclin D1 kinase assay (GST-Rb phosphorylation); format: biochemical; details: Table 3; read-out: Average IC50 CDK4 cyclin D1
Sequence (P11802 whole entry, species assumed): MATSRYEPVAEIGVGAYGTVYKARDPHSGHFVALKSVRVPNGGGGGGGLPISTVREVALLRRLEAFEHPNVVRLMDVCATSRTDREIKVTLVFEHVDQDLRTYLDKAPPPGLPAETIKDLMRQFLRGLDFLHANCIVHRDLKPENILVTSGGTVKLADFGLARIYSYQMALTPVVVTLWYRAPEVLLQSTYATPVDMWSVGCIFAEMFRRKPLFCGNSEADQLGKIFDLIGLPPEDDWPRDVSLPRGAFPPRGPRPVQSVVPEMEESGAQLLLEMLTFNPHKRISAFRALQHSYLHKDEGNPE
Sequence (P24385 whole entry partner, species assumed): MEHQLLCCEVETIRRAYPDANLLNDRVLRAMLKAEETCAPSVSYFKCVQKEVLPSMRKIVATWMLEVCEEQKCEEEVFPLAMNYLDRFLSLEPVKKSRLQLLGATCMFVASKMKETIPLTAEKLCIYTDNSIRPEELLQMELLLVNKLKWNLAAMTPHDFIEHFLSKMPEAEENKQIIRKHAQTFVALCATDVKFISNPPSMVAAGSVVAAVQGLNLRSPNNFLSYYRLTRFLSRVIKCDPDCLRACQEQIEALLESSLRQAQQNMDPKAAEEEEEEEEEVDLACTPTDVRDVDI
property measured: log10 of IC50 (log10 of the value in µM)
Scale: decimal log of IC50, IC50 in µM.

For this compound ( Cc1nc(N(C)C)sc1-c1ccnc(Nc2ccc(F)cc2)n1 [Compound 142] ), measured log10 of IC50 is 0.60

Summary for this compound, Cc1nc(N)sc1-c1ccnc(Nc2cccc(F)c2)n1 [Compound 109] : log10 of IC50 is 0.08

Documented log10 of IC50 of CCNc1nc(C)c(-c2ccnc(Nc3cccc([N+](=O)[O-])c3)n2)s1 [Compound 133] : 0.67

log10 of IC50 recorded for this compound, Cc1nc(N)sc1-c1ccnc(Nc2ccc(Br)cc2)n1 [Compound 120] , is 0.20

The recorded log10 of IC50 for entry CCN(CCO)c1ccc(Nc2nccc(-c3sc(C)nc3C)n2)cc1 [Compound 124] equals 0.83

Value of measured log10 of IC50 for the entry COC(=O)c1ccc(Nc2nccc(-c3sc(C)nc3C)n2)cc1 [Compound 37] : 1.23

// moving on: another record for log10 of IC50
Reported log10 of IC50 ( Cc1nc(C)c(-c2ccnc(Nc3ccc(O)cc3)n2)s1 [Compound 28] ) = -0.22

Reference for the values: patent US20050288307A1
